Test: Single dose oral pharmacokinetics comparative study of Lurasidone monohydrochloride v. dihydrochloride
Assay type: in vivo
Settings: male, Sprague Dawley, rat, plasma, po, 10 mg/kg, mean plasma, oral gavage, male Sprague Dawley rats
Protocol: Lurasidone salts mean plasma PK parameters were quantified with an API 3200 LC-MS/MS system and illustrated in Table 1. Male Sprague Dawley rats aged 6-8 weeks and weighing 180-220 g will be used for experiment. Animals will be acclimatized for a minimum period of 5 days. Overnight fasted animals were administered the test substance by oral gavage with a dose equivalent dose of 10 mg/kg of the parent compound with ready to use formulation provided and at a dose volume of 10.06 & 9.6 mL/kg b.w. […]
Counter-ions that a name gives are not always drawn.
ENDPOINT_NAME: MRT last
// unit must come after the numeric part

# get_value(readout='MRT last', item= O=C1[C@@H]2[C@H]3CC[C@H](C3)[C@@H]2C(=O)N1C[C@@H]1CCCC[C@H]1CN1CCN(c2nsc3ccccc23)CC1 [Mono HCl Salt] ) 57 min

====

Assay: Single dose oral pharmacokinetics comparative study of Lurasidone monohydrochloride v. dihydrochloride
Format: in vivo
Settings: male, Sprague Dawley, rat, plasma, po, 10 mg/kg, mean plasma, oral gavage, male Sprague Dawley rats
Counter-ions that a name gives are not always drawn.
ENDPOINT_NAME: AUC(0-t) (ng·h/mL)
Express the result in ng·h/mL but write the number alone.

Name the recorded AUC(0-t) for O=C1[C@@H]2[C@H]3CC[C@H](C3)[C@@H]2C(=O)N1C[C@@H]1CCCC[C@H]1CN1CCN(c2nsc3ccccc23)CC1 [Di HCl Salt, dihydrochloride dihydrate] . 570

====

Experiment: Single dose oral pharmacokinetics comparative study of Lurasidone monohydrochloride v. dihydrochloride
Format: in vivo
Settings: rat, mean plasma, oral gavage, 10 mg/kg, male Sprague Dawley rats
Where a name gives a salt, the structure may show the parent alone.
ENDPOINT_NAME: Tmax (min)
Answer with a number only, understood to be in min.

Which value of Tmax has been reported for O=C1[C@@H]2[C@H]3CC[C@H](C3)[C@@H]2C(=O)N1C[C@@H]1CCCC[C@H]1CN1CCN(c2nsc3ccccc23)CC1 [Mono HCl Salt] in the records? 19.8

====

Assay: Single dose oral pharmacokinetics comparative study of Lurasidone monohydrochloride v. dihydrochloride
Assay type: in vivo
Conditions: male, Sprague Dawley, rat, plasma, po, 10 mg/kg, mean plasma, oral gavage, male Sprague Dawley rats
Counter-ions that a name gives are not always drawn.
ENDPOINT_NAME: AUC(0-inf) (ng·h/mL)
Value expressed in ng·h/mL; do not type the unit.

Please look up its AUC(0-inf): O=C1[C@@H]2[C@H]3CC[C@H](C3)[C@@H]2C(=O)N1C[C@@H]1CCCC[C@H]1CN1CCN(c2nsc3ccccc23)CC1 [Di HCl Salt, dihydrochloride dihydrate] 577
